System: NCI/ADR-RES
Assay: NCI tumour cell line growth inhibition, 48 h
Active and inactive are the calls of the source. Rule as the data show it: active = GI50 up to about 1.1 µM and inactive = higher.

{"columns": ["compound", "GI50"],
 "data": [
  ["CCN(CC)c1ccc(/C=C(\\C#N)c2nc(N)nc(N3N=C(C)CC3(C)C)n2)cc1", "15.8 µM (inactive)"],
  ["COc1cc(C2SCC(=O)N2c2ccc(-c3ccc(-n4c(-c5ccccc5)nc5ccccc5c4=O)cc3)cc2)ccc1O (centres undefined)", "13.6 µM (inactive)"],
  ["O=C1CNc2cc(N3CCN(c4cccc(C(F)(F)F)c4)CC3)ccc2N1", "34.6 µM (inactive)"],
  ["CC(C)Cc1ccc(C(C)/C=C2\\CCC(CN3CCOCC3)C2=O)cc1 (centres undefined)", "3.93 µM (inactive)"],
  ["Cc1cc(-c2nc3ccccc3s2)ccc1NC(=O)[C@H](C)N", "18.3 µM (inactive)"],
  ["COc1cc(/C=C2\\Sc3scc(-c4cccc([N+](=O)[O-])c4)[n+]3C2=O)cc(OC)c1OC", "17.4 µM (inactive)"],
  ["CCOC(=O)/C=C/[C@@H](CC)O[Si](C(C)C)(C(C)C)C(C)C", "> 100 µM (inactive)"],
  ["C[C@H](CCC(=O)O)[C@H]1CC[C@H]2[C@@H]3[C@@H](O)C[C@@H]4C[C@H](O)CC[C@]4(C)[C@H]3CC[C@]12C [URSODIOL]", "> 100 µM (inactive)"],
  ["Cc1cc2c(cc1C)[n+]([O-])c(C(F)(F)F)c(C(=O)c1ccccc1)[n+]2[O-]", "2.49 µM (inactive)"]
]}

----------
Test system: SK-MEL-5
Assay: NCI tumour cell line growth inhibition, 48 h
Active and inactive are the calls of the source. Rule as the data show it: active = GI50 up to about 1.1 µM and inactive = higher.
Reported GI50 by item:
quantity: GI50

{"columns": ["compound", "reported_result"],
 "data": [
  ["C[Si](C)(C)[C@@]1([Se]c2ccccc2)CC[C@@H]1C(=O)c1ccccc1", "18.5 µM (inactive)"],
  ["CN(C)CCC(/C=C/c1ccccc1)=N\\Nc1ccccc1", "3.48 µM (inactive)"],
  ["C(=C\\c1nccs1)/c1cccc(/C=C/c2nccs2)n1", "> 50 µM (inactive)"],
  ["CCCCCCCCCCCCCCCCCCOCC(O)COP(=O)(O)OCC1OC(n2cc(F)c(=O)[nH]c2=O)CC1O (configuration not stated)", "4.01 µM (inactive)"],
  ["CCN(CC)CCCN1CCc2c([nH]c3ccccc23)C1c1cccnc1 (configuration not stated)", "59.8 µM (inactive)"],
  ["COC(=O)c1cc2c(c(C(=O)OC)c1)CCC2", "56.1 µM (inactive)"],
  ["CC1(C)N=C(N)N=C(N)N1c1cccc(OCc2cccc([N+](=O)[O-])c2)c1", "4.86 µM (inactive)"],
  ["COc1ccc(OC2OC(CO)C(OCc3ccccc3)C(OCc3ccccc3)C2OCc2ccccc2)cc1 (configuration not stated)", "54.8 µM (inactive)"],
  ["O=C1C2C3C4C1C1C2[C@H](OCc2ccccc2)C3C1[C@H]4OCc1ccccc1 (some centres not stated)", "36.3 µM (inactive)"],
  ["CN(/N=N/c1[nH]cnc1C(N)=O)C1CCCCC1", "> 100 µM (inactive)"],
  ["O=C(NC(Cc1ccccc1)P(=O)(O)c1ccccc1)OCc1ccccc1 (configuration not stated)", "> 100 µM (inactive)"],
  ["Oc1cccc(-c2cn3cc(Cl)ccc3n2)c1", "16.6 µM (inactive)"]
]}

Recorded values, source ChEMBL document CHEMBL1201862.
